# Assayed target: (His)6-SOX11-DBD protein (Homo sapiens)
# Construct: Recombinant (His)6-SOX11-DBD protein was immobilized
# Sequence (P35716 49-117 limits assumed): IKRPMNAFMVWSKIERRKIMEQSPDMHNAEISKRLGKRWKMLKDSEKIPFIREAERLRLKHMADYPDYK
# Assay text: Surface Plasmon Resonance (SPR) assay
# Setup conditions: immobilized recombinant (His)6-SOX11-DBD, 25° C., compounds 5-40 μM, mean of three experiments
Entries whose Kd is below 40 µM take label 1; entries at or above 40 µM take label 0.

Molecule	Category label
CN(Cc1ccc(NC(=O)c2ccc3c(c2)N(C)C(=O)CS3)cc1)c1ccccc1	label 1
Cc1ccc(C(=O)Nc2ccc(S(=O)(=O)Nc3ccccc3)cc2)cc1NC(=O)CCc1c[nH]cn1	label 0
CC1Sc2ccc(C(=O)Nc3ccc(S(=O)(=O)NC4CCCC4)cc3)cc2NC1=O (centres unmarked)	label 1
CC(C)N1C(=O)CSc2ccc(C(=O)Nc3ccc(S(=O)(=O)N4CCCCC4)cc3)cc21	label 1
Nc1cccc(Nc2ccnc(Nc3cccc(S(=O)(=O)N4CCCC4)c3)n2)c1	label 0
Cc1cc(NC(=O)c2ccc3c(c2)NC(=O)C(C)S3)ccc1S(=O)(=O)Nc1ccccc1 (centres unmarked)	label 1
c1ccc(COc2ccc(CNc3ccc4cncnc4c3)cc2)cc1	label 1
CN(c1cccc(Cl)c1)S(=O)(=O)c1ccc(NC(=O)c2ccc3c(c2)CCCS3)cc1	label 1
CC1Sc2ccc(C(=O)Nc3ncc(S(=O)(=O)Nc4ccccc4)s3)cc2NC1=O (centres unmarked)	label 1
NCCc1nc2ccc(C(=O)Nc3ccc(S(=O)(=O)Nc4ccccc4)cc3)cc2[nH]1	label 0
CC1Sc2ccc(C(=O)Nc3ccc(S(=O)(=O)N(C)C)cc3)cc2NC1=O (centres unmarked)	label 1
CC1Sc2ccc(C(=O)Nc3cccc(S(=O)(=O)F)c3)cc2NC1=O (centres unmarked)	label 1
CC1Sc2ccc(C(=O)Nc3ccc(S(=O)(=O)Nc4ccccc4)s3)cc2NC1=O (centres unmarked)	label 1
CC1Sc2ccc(C(=O)Nc3ccc(S(=O)(=O)Nc4ccncn4)cc3)cc2NC1=O (centres unmarked)	label 1
CC1Sc2ccc(C(=O)Nc3ccc(S(N)(=O)=O)cc3)cc2NC1=O (centres unmarked)	label 0
O=C(Cc1ccccc1[N+](=O)[O-])Nc1cccc(C(=O)Nc2ccc(CN3CCCC3)cc2)c1	label 0
O=C(Nc1ccc(S(=O)(=O)Nc2ccccc2)cc1)c1ccc2[nH]ncc2c1	label 0
CN1C(=O)COc2ccc(C(=O)Nc3ccc(S(=O)(=O)N4CCCCCC4)cc3)cc21	label 1
CC1Sc2ccc(C(=O)Nc3cccc(OCc4cccc(OS(=O)(=O)F)c4)c3)cc2NC1=O (centres unmarked)	label 1
Cc1ccc(NC(=O)c2ccc3c(c2)N(C)C(=O)CS3)cc1S(=O)(=O)N1CCCC1	label 1

====

# System: Jeko-1 (SOX11+)
# Assay text: Cell viability assay (CellTiter-Blue resazurin reduction)
# Type: cell-based
# Setup conditions: Homo sapiens, JeKo-1, 72 h, JeKo-1 cells, 20 μM compound, normalized to 0.2% DMSO
Below, each entry is listed with its recorded viability at 20 µM.

Compound	Assayed target	viability at 20 µM / %
CC1Sc2ccc(C(=O)Nc3ccc(S(=O)(=O)Nc4ccccc4)cc3)cc2N(C)C1=O (stereo not drawn)	Jeko-1 (SOX11+)	1.23
CC1Sc2ccc(C(=O)Nc3cccc(S(=O)(=O)Nc4cccc(Cl)c4)c3)cc2NC1=O (stereo not drawn)	Jeko-1 (SOX11+)	28.8
O=C(Nc1ccc(S(=O)(=O)Nc2ccccc2)cc1)c1ccc2ccccc2c1	Jeko-1 (SOX11+)	96.3
CC1Sc2ccc(C(=O)N(c3ccccc3)S(=O)(=O)c3ccc(N)cc3)cc2NC1=O (stereo not drawn)	Jeko-1 (SOX11+)	91.2
CC1Sc2ccc(C(=O)Nc3ccc(S(=O)(=O)Nc4cccc(C(F)(F)F)c4)cc3)cc2NC1=O (stereo not drawn)	Jeko-1 (SOX11+)	9.74
Cc1cc(S(=O)(=O)Nc2ccccc2)ccc1NC(=O)c1ccc2c(c1)NC(=O)C(C)S2 (stereo not drawn)	Jeko-1 (SOX11+)	51.1
CC1Sc2ccc(C(=O)Nc3ccc(S(=O)(=O)N4CCCC4)cc3)cc2NC1=O (stereo not drawn)	Jeko-1 (SOX11+)	2.97
CC1Sc2ccc(C(=O)Nc3ccc(S(=O)(=O)N4CCNCC4)cc3)cc2NC1=O (stereo not drawn)	Jeko-1 (SOX11+)	92.4
CC1Sc2ccc(C(=O)Nc3ccc(S(=O)(=O)Nc4cc[nH]c(=O)c4)cc3)cc2NC1=O (stereo not drawn)	Jeko-1 (SOX11+)	34.8

Values from patent US20230242496A1
